target: KCNQ2/3 channels (Homo sapiens, UniProt O43525+O43526); test: Fluorescence assay using a voltage sensitive dye (fluorimetry); conditions: CHO-K1 cells expressing KCNQ2/3 channels
EXPERIMENTAL READOUT: EC50 (nM)

Below, 5 molecules whose answers are already recorded.
Give the reported EC50 for Cc1c(C(=O)NCc2ccc(F)cc2)c(CC(C)(C)C)nc2cc(C(F)(F)F)ccc12 (system: KCNQ2/3 channels (Homo sapiens, UniProt O43525+O43526)). 120

Similarly, CCCc1nc2cc(C(F)(F)F)ccc2c(C)c1C(=O)NCc1cccc(F)c1 ? 93

Similarly, Cc1c(C(=O)NCc2cccc(F)c2)c(CC(C)(C)C)nc2cc(C(F)(F)F)ccc12 ? 92

Similarly, CCCc1nc2cc(C(F)(F)F)ccc2c(C)c1C(=O)NCC1CCCCCC1 ? 327

Similarly, Cc1c(C(=O)NCc2ccc(F)cc2)c(C2CCCC2)nc2cc(C(F)(F)F)ccc12 ? 223

(A) CC(C)c1nc2cc(C(F)(F)F)ccc2cc1C(=O)NCc1cccc(F)c1
(B) CC(C)(C)c1nc2cc(C(F)(F)F)ccc2cc1C(=O)NCc1cccc(F)c1
(C) Cc1c(C(=O)NCc2cccc(F)c2)c(C2CCCC2)nc2cc(C(F)(F)F)ccc12
Order by EC50, ascending. Record the ranking as a list of labels in the requested order. C, A, B
(C: 49 nM, A: 246 nM, B: 829 nM)

* * *

target: KCNQ2/3 channels (Homo sapiens, UniProt O43525+O43526); construct: expressed in transfected cells; test: Fluorescence assay using a voltage sensitive dye (fluorimetry); format: cell-based; details: CHO-K1 cells expressing KCNQ2/3 channels; relative to retigabine = 100%; read-out: Fluorimetry % efficacy (retigabine = 100%)
EXPERIMENTAL READOUT: Emax (%)

Give the reported Emax for C/C=C/c1nc2cc(C(F)(F)F)ccc2c(C)c1C(=O)NCc1cccc(F)c1 (system: KCNQ2/3 channels (Homo sapiens, UniProt O43525+O43526)). 130

Similarly, Cc1c(C(=O)NCc2ccc(F)cc2)c(C(C)C)nc2cc(C(F)(F)F)ccc12 ? 181

(1) Cc1c(C(=O)NCc2cccc(F)c2)c(C(C)C)nc2cc(C(F)(F)F)ccc12
(2) COCc1nc2cc(C(F)(F)F)ccc2c(C)c1C(=O)NCc1cccc(F)c1
So which one has the bigger Emax here, 1 or 2 ? Answer = label. 1
(1: 185%, 2: 117%)

* * *

molecular target: KCNQ2/3 channels (Homo sapiens, UniProt O43525+O43526); construct: expressed in transfected cells; assay: Fluorescence assay using a voltage sensitive dye (fluorimetry); format: cell-based; conditions: CHO-K1 cells expressing KCNQ2/3 channels; relative to retigabine = 100%; read-out: Fluorimetry % efficacy (retigabine = 100%)
EXPERIMENTAL READOUT: Emax (%)

Dear colleague, I am looking for the recorded Emax of the following compound: CC(C)(C)c1nc2cc(C(F)(F)F)ccc2cc1C(=O)NCc1ccc(F)cc1 144

Similarly, Cc1c(C(=O)NCc2cccc(F)c2)c(CC(C)C)nc2cc(C(F)(F)F)ccc12 ? 154

Similarly, Cc1c(C(=O)NCc2cccc(F)c2)c(C2CC2)nc2cc(C#N)ccc12 ? 128

Similarly, CCc1nc2cc(C(F)(F)F)ccc2c(C)c1C(=O)NCc1ccc(F)c(C)c1 ? 133

(I) CC(C)c1nc2cc(C(F)(F)F)ccc2cc1C(=O)NCc1ccc(F)cc1
(II) Cc1c(C(=O)NCc2cccc(F)c2)c(CN(C)C)nc2cc(C(F)(F)F)ccc12
Which entry shows the lesser value of Emax here, I or II ? Answer = label. II

Data provenance: patent US8445512B2
